What GI50 was measured for each of the following?
# Tested on: A549 NSCLC
# protocol description: NCI tumour cell line growth inhibition, 48 h

Which GI50 is reported for this molecule? COC1CC2CCC(C)C(O)(O2)C(=O)C(=O)N2CCCCC2C(=O)OC(C(C)CC2CCC(O)C(OC)C2)CC(=O)C(C)C=C(C)C(O)C(OC)C(=O)C(C)CC(C)/C=C/C=C/C=C1C (stereo not given)
0.0784 µM

Which GI50 is reported for this molecule? COC(=O)c1c2c(c(C)[n+]([O-])c1C)C(=O)C=C(NCc1ccc(F)c(Cl)c1)C2=O
0.352 µM

Which GI50 is reported for this molecule? O=C(Nc1cccc(Cl)c1)c1ccc(NC2=C(Cl)C(=O)N(Cc3ccccc3)C2=O)cc1
33.3 µM

Which GI50 is reported for this molecule? COc1ccc(-n2nnnc2-c2c[nH]c3c(F)cc(F)cc23)cc1
> 100 µM

Which GI50 is reported for this molecule? Cc1ccc(/C=C2/SC(Nc3nc(-c4csc(NC5=NC(=O)/C(=C\c6ccc(C)cc6)S5)n4)cs3)=NC2=O)cc1
7 µM

Which GI50 is reported for this molecule? COc1cc(-c2nn(-c3cccc(NC(=O)Nc4cc(C(F)(F)F)cc(C(F)(F)F)c4)c3)cc2-c2ccncc2)ccc1Cl
0.438 µM

Which GI50 is reported for this molecule? CCCc1cc2c(=O)c(C(=O)OC)c[nH]c2cc1N(CC)CC
38.3 µM

Which GI50 is reported for this molecule? N[C@@H]1CCCC[C@H]1N.O=C([O-])C(=O)[O-].[Pt+4]
0.615 µM

Which GI50 is reported for this molecule? Cc1ccc(-n2c3c(c4c(CN(C)C)c(O)ccc42)CCc2ccccc2C3=O)cc1
16.7 µM

Which GI50 is reported for this molecule? NC(N)=N/N=C\c1cccc(OCc2ccccc2)c1
9.2 µM

====

# Test system: MOLT-4 leukemia
# protocol description: NCI tumour cell line growth inhibition, 48 h
What TGI was measured for each of the following?

Which TGI is reported for this molecule? CC(C)(C)N1C(C(=O)c2ccccc2)C1c1ccccc1 (stereo unspecified)
> 100 µM

Which TGI is reported for this molecule? COc1ccc(-n2nnnc2-c2c[nH]c3c(F)cc(F)cc23)cc1
> 100 µM

Which TGI is reported for this molecule? O=C1CCC(=O)N1Cc1ccccc1N=[N+]([O-])c1ccccc1CN1C(=O)CCC1=O
> 100 µM

Which TGI is reported for this molecule? Oc1ccccc1/C=N/Nc1nc(N/N=C/c2ccccc2O)nc(N/N=C/c2ccccc2O)n1
> 100 µM

Which TGI is reported for this molecule? NC(N)=N/N=C\c1cccc(OCc2ccccc2)c1
27.8 µM

Which TGI is reported for this molecule? O=C1C(=O)c2ccccc2C(O)=C1CC=C(Br)Br
> 100 µM

====

# System: K-562 leukemia
# protocol description: NCI tumour cell line growth inhibition, 48 h
What TGI was measured for each of the following?

Find the measured TGI: item COc1ccc2nc3ccc(OC)cc3c(SCc3ccc([N+](=O)[O-])cc3)c2c1 , target or system K-562 leukemia.
> 100 µM

Find the measured TGI: item BrC1=CC=C2NC=CC3=CC=NC1C32 (stereo not given) , target or system K-562 leukemia.
52.8 µM

Find the measured TGI: item N[C@@H]1CCCC[C@H]1N.O=C([O-])C(=O)[O-].[Pt+4] , target or system K-562 leukemia.
> 95.3 µM

Find the measured TGI: item FC(F)(Sc1ccccn1)c1nc2ccccc2o1 , target or system K-562 leukemia.
> 100 µM

Find the measured TGI: item CC(C)[C@H](CO)Nc1nc(Nc2ccc(C(=O)NCCNS(=O)(=O)c3cccc4c(N(C)C)cccc34)c(Cl)c2)c2ncn(C(C)C)c2n1 , target or system K-562 leukemia.
> 100 µM
